# Test Summary: reduction of polyQ htt aggregates in cells – imaging, exon1htt(103Q)mCFP cells, high-content imaging, primary screen (AID 483);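 further: compound exposure lasted 3 days before fixation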;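 on nuclei count: percent of the per-plate median nuclei count of sample wells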
# Settings: exon1htt(103Q)mCFP cell line, aggregate imaging, at 2 µM; measured here: cell count, toxicity
Overview of recorded nuclei count for various compounds
Lab book: enter the figure in %, no units written.

Here's what some known entries look like.
>>> numeric_value("COc1cc(C(=O)N2CCCC(c3nc(-c4cccs4)no3)C2)cc(OC)c1OC (stereo not given)")
89
>>> numeric_value("CCCCOc1ccc(-c2nnn(CC(=O)NCc3ccco3)n2)cc1")
18.8
>>> numeric_value("COc1cccc(CC(NC(C)=O)C(=O)NC2CCN(c3c4c(nc5ncnn35)CCC4)CC2)c1 (stereo not given)")
114
>>> numeric_value("CC1(C)C2CCC1(CS(=O)(=O)NCc1ccc(C(=O)O)cc1)C(=O)C2 (stereo not given)")
90.1
>>> numeric_value("COC(=O)c1cc(Oc2ccc(C(=O)OC)cc2N)cc(C(=O)OC)c1")
106
>>> numeric_value("O=C1CC(c2cccc(Cl)c2)CC(O)=C1C=NCCCO (stereo not given)")
87.3
>>> numeric_value("O=S(=O)(NCCc1ccccn1)c1cccs1")
119
>>> numeric_value("Cc1cccc(OCC(=O)Nc2ccccc2N2CCN(C(=O)C(C)C)CC2)c1C")
73.8
>>> numeric_value("Nc1nc(CN2CCN(Cc3ccc4c(c3)OCO4)CC2)nc(Nc2ccccc2)n1")
116

q: nuclei count for O=C(Nc1ccc(N2CCCC2=O)cc1)c1cccc(F)c1 ?
a: 90.3

* * *

# Test Summary: reduction of polyQ htt aggregates in cells – imaging, exon1htt(103Q)mCFP cells, high-content imaging, primary screen (AID 483);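 further: compound exposure lasted 3 days before fixation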
# Settings: exon1htt(103Q)mCFP cell line, aggregate imaging, at 2 µM; stronger effect = higher value
The source made the active and inactive calls.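 The calls were made as follows: active = visual image review flags a hit and inhibition of aggregation exceeds 20%; inconclusive = visual hit but inhibition at or below 20%; inactive = no hit on visual image review.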
Overview of recorded inhibition of aggregation for various compounds

>>> result("Cc1ccc(S(=O)(=O)N(C)CC(=O)NC2CCCC2)cc1")
"1.1% (inactive)"
>>> result("Cc1cc(C2C(C#N)=C(N)SC(N)=C2C#N)c(C)s1")
"-30.7% (inactive)"
>>> result("CC1CCc2cc(F)cc3c(=O)c(C(=O)O)cn1c23 (configuration not stated)")
"3.7% (inactive)"
>>> result("O=C(CCn1nc(-c2ccc(Cl)cc2)ccc1=O)N1CCN(c2ccccn2)CC1")
"26.9% (inactive)"
>>> result("Cn1c(Cc2csc(N)n2)nnc1SCC(=O)NC1CCCCC1")
"-15.2% (inactive)"
>>> result("O=C(COC(=O)Cc1cccc(C(F)(F)F)c1)NCC1CCCO1 (configuration not stated)")
"3% (inactive)"

The record that follows has no inhibition of aggregation shown yet.
q: inhibition of aggregation for Cc1ccc(Cn2c(SCC(C)C)nc3c2c(=O)n(C)c(=O)n3C)cc1 ?
a: -13.4% (inactive)

* * *

# Test Summary: endothelial E-selectin expression blockers – imaging, HUVEC, immunofluorescence, MLSMR starter and 10KST1 sets, primary screen (AID 487);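 further: 100% = median nuclei count of all wells on the same plate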
# Settings: HUVEC TNFalpha-induced E-selectin immunofluorescence imaging, at 2 µM; measured here: cell number, toxicity
Observable: nuclei count (%)
Lab book: enter the figure in %, no units written.

>>> numeric_value("COc1cc(Cn2c(C(=O)O)cc3sccc32)cc(OC)c1OC")
140
>>> numeric_value("COc1ccc(C2=NOC(C(=O)NCCCN3CCOCC3)C2)cc1 (centres undefined)")
84.7

The record that follows has no nuclei count shown yet.
q: nuclei count for CN1CCN(C2=Nc3cc(Cl)ccc3Nc3ccccc32)CC1 ?
a: 132

* * *

# Measured Target: Voltage-gated potassium channel subunit beta-2 (Rattus norvegicus) (UniProt P62483)
# Sequence (P62483 whole entry, looked up): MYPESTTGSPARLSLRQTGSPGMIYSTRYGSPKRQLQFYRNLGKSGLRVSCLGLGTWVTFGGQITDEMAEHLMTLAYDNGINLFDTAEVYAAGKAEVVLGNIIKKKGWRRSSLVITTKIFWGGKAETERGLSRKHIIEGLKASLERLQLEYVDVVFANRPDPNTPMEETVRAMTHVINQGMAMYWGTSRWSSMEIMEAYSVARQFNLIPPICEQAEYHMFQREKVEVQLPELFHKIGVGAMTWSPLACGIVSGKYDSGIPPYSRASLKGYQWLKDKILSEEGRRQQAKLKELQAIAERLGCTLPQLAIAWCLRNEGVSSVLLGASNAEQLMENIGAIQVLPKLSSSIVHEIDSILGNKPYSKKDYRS
# Test Summary: inhibitors of rat Kvbeta2 reductase activity – biochemical, NADPH fluorescence, primary screen (AID 622);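 further: slope of raw intensity against log time taken from 70 to 1610 s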
# Settings: recombinant KvBeta, 4-cyanobenzaldehyde reduction, at 10 µM, stronger effect = higher value
The label depends only on fluorescence slope: t if it is at least -0.5, f if it is smaller.

q: Could you please find out whether CN(CCOC(=O)c1cccc(Br)c1)C(C)(C)C has fluorescence slope that meets -0.5 or exceeds it?
a: t

q: Could you please find out whether O=C1CC(c2ccco2)CC(O)=C1C=NCCN1CCNCC1 (stereo not given) has fluorescence slope that meets -0.5 or exceeds it?
a: f

q: Could you please find out whether O=C(c1cccs1)c1cn(CC(=O)N2CCc3ccccc3C2)c2ccccc12 has fluorescence slope that meets -0.5 or exceeds it?
a: f

q: Could you please find out whether CC(C)NC(=O)CSc1nnc(-c2ccc(C(C)(C)C)cc2)n1C has fluorescence slope that meets -0.5 or exceeds it?
a: t

* * *

# Test Summary: reduction of polyQ htt aggregates in cells – imaging, exon1htt(103Q)mCFP cells, high-content imaging, primary screen (AID 483);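 further: compound exposure lasted 3 days before fixation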
# Settings: exon1htt(103Q)mCFP cell line, aggregate imaging, at 2 µM; stronger effect = higher value
Observable: inhibition of aggregation (%)
Lab book: enter the figure in %, no units written.

Here's what some known entries look like.
>>> numeric_value("Cn1c(=O)cc(SCC(=O)NCC2CCCO2)c2ccc(Cl)cc21 (configuration not stated)")
3.4
>>> numeric_value("CCN1CCN(Cc2ccccc2NC(=O)Nc2ccc(C)cc2)CC1")
21.9
>>> numeric_value("CCCCNC(=O)NS(=O)(=O)c1ccc(C)cc1")
10.9
>>> numeric_value("CC(C)C12CN3CC(C(C)C)(CN(C1)C3c1ccc3c(c1)OCO3)C2=O (configuration not stated)")
-9.1
>>> numeric_value("COc1ccc2nc(NC(=O)C(NS(=O)(=O)c3cccs3)C(C)C)sc2c1 (configuration not stated)")
-16.1
>>> numeric_value("CC(C)Oc1cccc(-c2cc(C(=O)N3CCN(S(C)(=O)=O)CC3)c3ccccc3n2)c1")
11.2

q: inhibition of aggregation for COC(=O)c1ccc(-c2ccc(CNCC(O)c3ccccc3)o2)cc1 (configuration not stated) ?
a: -6

* * *

# Measured Target: Voltage-gated potassium channel subunit beta-2 (Rattus norvegicus) (UniProt P62483)
# Test Summary: enhancers of rat Kvbeta2 NADPH turnover – biochemical, NADPH fluorescence, primary screen (AID 623);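 further: fluorescence intensity change per second fitted from 20 to 320 s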
# Settings: Recombinant KvBeta, NADPH fluorescence decrease slope, 10 min; at 10 µM; stronger effect = lower value
Activity calls are given as the source filed them.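 The calls were made as follows: active = NADPH fluorescence slope more negative than the mean of all samples by about 3 SD, 99.7% confidence; inactive = the rest.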
Overview of recorded NADPH fluorescence slope for various compounds

q: Param readout = NADPH fluorescence slope; param system = Voltage-gated potassium channel subunit beta-2 (Rattus norvegicus) (UniProt P62483); param query = COc1cc(C2Oc3cc(C4Oc5cc(O)cc(O)c5C(=O)C4O)ccc3OC2CO)ccc1O (stereo not drawn) ; response: value
a: 1.9e-05 (inactive)

* * *

# Measured Target: Voltage-gated potassium channel subunit beta-2 (Rattus norvegicus)
# Test Summary: inhibitors of rat Kvbeta2 reductase activity – biochemical, NADPH fluorescence, primary screen (AID 622);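 further: slope of raw intensity against log time taken from 70 to 1610 s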
# Settings: recombinant KvBeta, 4-cyanobenzaldehyde reduction, at 10 µM, stronger effect = higher value
Overview of recorded fluorescence slope for various compounds
Give the figure by itself; no unit, no explanation.

>>> numeric_value("O=C(NCc1n[nH]c(=S)n1-c1ccc(F)cc1)c1ccco1")
-0.463
>>> numeric_value("C=CCN(CC=C)C(=O)CN1C(=O)c2ccccc2C1=O")
-0.572
>>> numeric_value("COc1ccc(OC)c(NC(=O)Cc2coc3ccc(C)cc23)c1")
-0.468
>>> numeric_value("CCCn1c(NCc2ccc3c(c2)OCO3)nc2ccccc21")
-0.537
>>> numeric_value("CCNC(=O)CC1C(=O)N(c2ccc(F)cc2)C(=O)N1CCC(C)C (stereo unspecified)")
-0.525
>>> numeric_value("CC(C)(C)SCCNC(=O)COc1ccccc1")
-0.32
>>> numeric_value("CCOc1ccccc1NC(=O)C1CCCN(C(=O)NCc2ccccc2)C1 (stereo unspecified)")
-0.448
>>> numeric_value("CCc1oc2ccccc2c1C(=O)c1cc(Br)c(O)c(Br)c1")
-0.429

q: fluorescence slope for Cc1ccnc(NS(=O)(=O)c2ccc(N=CC3=C(O)CC(C)(C)CC3=O)cc2)n1 ?
a: -0.474

q: fluorescence slope for Cc1cc(NC(=O)CN2CCC(O)(c3cccc(F)c3)CC2)no1 ?
a: -0.283

q: fluorescence slope for Cc1cc(C)n2nc3nc(N4CCCCC4)nc(-c4ccco4)c3c2n1 ?
a: -0.433

q: fluorescence slope for CC(NC(=O)c1ccco1)C(c1cccs1)N1CCN(c2ccc(F)cc2)CC1 (stereo unspecified) ?
a: -0.489

q: fluorescence slope for O=C(O)C1CC(=O)N(c2ccc(Br)cc2)C1 (stereo unspecified) ?
a: -0.506

q: fluorescence slope for Cn1c(=O)c(-c2ccccc2)nn2c3ccccc3nc12 ?
a: -0.19

* * *

# Test Summary: TLR3 IRF3 reporter activation blockers – cell-based, poly I:C stimulus, luciferase, 10K MLSCN set, primary screen (AID 602277)
# Settings: HEK293-TLR3 RL24 IRF3 luciferase reporter, at 10 µM, stronger effect = higher value
Observable: inhibition (%)
Lab book: enter the figure in %, no units written.

Here's what some known entries look like.
>>> numeric_value("CCn1cc(C(=O)O)c(=O)c2ccc(C)nc21")
40.1
>>> numeric_value("COc1c2ccoc2nc2c(OC)c(OCC(O)C(C)(C)O)ccc12 (stereo not given)")
7.86

q: inhibition for O=C(NCc1ccco1)C1CCN(C(=O)c2cc3sccc3n2Cc2ccc(F)cc2)CC1 ?
a: 27.2

q: inhibition for COCCn1nnnc1C(c1cc2cc(C)cc(C)c2[nH]c1=O)N1CCN(c2ccccc2F)CC1 (stereo not given) ?
a: 29.8

q: inhibition for CC(C)Cn1c(=O)c(C(=O)NCc2ccccn2)c(O)c2ccccc21 ?
a: -3.14

q: inhibition for Cc1ccc(C(=O)CCC2CCCC2=O)cc1 (stereo not given) ?
a: -124

q: inhibition for O=C(Nc1ccncc1)c1cncc(Br)c1 ?
a: 0.632

q: inhibition for Cn1nc(-c2ccc(C(=O)N3CCN(c4ccccc4)CC3)cc2)c2ccccc2c1=O ?
a: -26.4

q: inhibition for c1ccc(OCCOc2ncnc3sccc23)cc1 ?
a: -65.8

q: inhibition for Cc1ccc(C)c(C(=O)NC2CC(C)(C)NC(C)(C)C2)c1 ?
a: 9.21

The reported measurements were obtained from PubChem BioAssay.
